- Study target: NS3/4A protease gt 3a (Hepatitis C virus genotype 3a, UniProt Q81258)
- Test name: HCV NS3 protease time-resolved fluorescence (TRF) assay, NS3/4A inhibitory activity (Ki), gt 3a
- Format: biochemical
- Condition label: NS3/4A enzyme
Property label: Ki (nM)
Give the value, in units of nM, as a plain number.

Inquiry: Sample COc1ccc2nc3c(nc2c1)O[C@@H]1C[C@H]2C(=O)N[C@]4(C(=O)NS(=O)(=O)C5CC5)C[C@H]4/C=C\CCCCC[C@H](NC(=O)O[C@@H]4CCC[C@H]4CCCCC3)C(=O)N2C1 [Example 1] — what was its Ki?
Reply text: 0.45

Inquiry: Please report the recorded Ki for C[C@@]12C[C@H]1CCCCCc1nc3ccccc3nc1O[C@@H]1C[C@H]3C(=O)N[C@]4(C(=O)NS(=O)(=O)C5CC5)C[C@H]4/C=C\CCCCC[C@H](NC(=O)O2)C(=O)N3C1 [Example 10] .
Reply text: 0.35

Inquiry: Given O=C1N[C@H]2CCCCC/C=C\[C@@H]3C[C@@]3(C(=O)NS(=O)(=O)C3CC3)NC(=O)[C@@H]3C[C@H](CN3C2=O)Oc2nc3ccccc3nc2CCCCC[C@@H]2C[C@H]2O1 [Example 8] , state its recorded Ki.
Reply text: 0.49

----------
- Test system: HCV gt 1b replicon
- Test name: HCV replicon assay, compound inhibitory potency (Replicon EC50)
- Format: cell-based
- Condition label: Hepatitis C virus, GT1B, 10% fetal bovine serum, read-out: gt 1b Replicon EC50 10% FBS
- Procedure: Measurement of inhibition by compounds was performed using the HCV replicon system. Several different replicons encoding different HCV genotypes or mutations were used. […] To initiate an assay, replicon cells were plated in the presence of a dilution series of test compound in the absence of G418. […] For direct quantitation, RNA levels were measured by 32P-probe hybridization and protection, or in a TAQMAN-based assay and normalized to cellular cyclophilin A RNA levels. […]
# pEC50 annotations
Please report pEC50 as the negative decimal logarithm of the molar concentration, giving only the number.

Below, each entry is followed by its recorded pEC50 result.
# Item smiles, pEC50
rows = [
    ("CC1(S(=O)(=O)NC(=O)[C@@]23C[C@H]2/C=C\\CCCCC[C@@H]2NC(=O)O[C@@H]4CCC[C@H]4CCCCCc4nc5ccccc5nc4O[C@@H]4C[C@@H](C(=O)N3)N(C4)C2=O)CC1", 8.70),
    ("COc1ccc2nc3c(nc2c1)O[C@@H]1C[C@H]2C(=O)N[C@]4(C(=O)NS(=O)(=O)C5CC5)C[C@H]4/C=C\\CCCCC[C@H](NC(=O)O[C@]4(C)C[C@H]4CCCCC3)C(=O)N2C1", 9.00),
    ("CC1(S(=O)(=O)NC(=O)[C@@]23C[C@H]2/C=C\\CCCCC[C@@H]2NC(=O)O[C@@H]4C[C@H]4CCCCCc4nc5ccccc5nc4O[C@@H]4C[C@@H](C(=O)N3)N(C4)C2=O)CC1", 8.70),
    ("C[C@@]12C[C@H]1CCCCCc1nc3ccccc3nc1O[C@@H]1C[C@H]3C(=O)N[C@]4(C(=O)NS(=O)(=O)C5CC5)C[C@H]4/C=C\\CCCCC[C@H](NC(=O)O2)C(=O)N3C1", 9.00),
    ("CC1(S(=O)(=O)NC(=O)[C@@]23C[C@H]2/C=C\\CCCCC[C@@H]2NC(=O)O[C@]4(C)C[C@H]4CCCCCc4nc5ccccc5nc4O[C@@H]4C[C@@H](C(=O)N3)N(C4)C2=O)CC1", 9.00),
    ("COc1ccc2nc3c(nc2c1)O[C@@H]1C[C@H]2C(=O)N[C@]4(C(=O)NS(=O)(=O)C5(C)CC5)C[C@H]4/C=C\\CCCCC[C@H](NC(=O)O[C@@H]4C[C@H]4CCCCC3)C(=O)N2C1", 8.70),
]

Please turn your attention to the following entry.
Inquiry: Recorded pEC50 for "COc1ccc2nc3c(nc2c1)O[C@@H]1C[C@H]2C(=O)N[C@]4(C(=O)NS(=O)(=O)C5(C)CC5)C[C@H]4/C=C\CCCCC[C@H](NC(=O)O[C@]4(C)C[C@H]4CCCCC3)C(=O)N2C1" , please?
Reply text: 9.00
